Consider the following compounds; for each one, report its pIC50.
TESTED_SYSTEM: Human CB1 Receptor-1 (hCB1) (Homo sapiens (Human))
METHOD: hCB1 Gai cyclic AMP (cAMP) TR-FRET assay, antagonism of EC80 CP55940 with forskolin
CONDITION_SUMMARY: hCB1 cells, 30 min pre-incubation
pIC50: −log10 of the molar value.

Below: 2 compounds and their reported pIC50.
COMPOUND	pIC50
NS(=O)(=O)[C@H]1C[C@H](N/C(=N/S(=O)(=O)c2ccc(Cl)cc2)N2C[C@H](c3ccccc3)C(c3ccc(F)cc3)=N2)C1 (single isomer, unassigned)	6.30 to 7.00
NS(=O)(=O)[C@@H]1CCN(/C(=N/S(=O)(=O)c2ccc(Cl)cc2)N2C[C@H](c3ccccc3)C(c3ccc(Cl)cc3)=N2)C1 (single isomer, unassigned)	< 6.30

// next item, pIC50 requested
Determine reported pIC50 for NS(=O)(=O)[C@H]1CC[C@@H](N/C(=N/S(=O)(=O)c2ccc(Cl)cc2)N2C[C@H](c3ccccc3)C(c3ccc(F)cc3)=N2)CC1 (single isomer, unassigned) ; test system: Human CB1 Receptor-1 (hCB1) (Homo sapiens (Human)).
< 6.30

---

TESTED_SYSTEM: Human CB1 Receptor-1b (hCB1b) (Homo sapiens (Human))
METHOD: hCB1b Gai cyclic AMP (cAMP) TR-FRET assay, antagonism of EC80 CP55940 with forskolin
CONDITION_SUMMARY: hCB1b cells, 30 min pre-incubation, read-out: CB1b IC50
pIC50: −log10 of the molar value.
READOUT_KIND: pIC50

Here's what some known entries look like.
COMPOUND	pIC50
NS(=O)(=O)N[C@H]1C[C@H](N/C(=N\S(=O)(=O)c2ccc(Cl)cc2)N2C[C@H](c3ccccc3)C(c3ccc(Cl)cc3)=N2)C1 (single isomer, unassigned)	> 7.00
NS(=O)(=O)CCNC(=NS(=O)(=O)c1cccnc1)N1C[C@H](c2ccccc2)C(c2ccc(Cl)cc2)=N1	> 7.00
NS(=O)(=O)O[C@H]1C[C@@H](N/C(=N\S(=O)(=O)c2ccc(C(F)(F)F)cc2)N2C[C@@H](c3ccccc3)C(c3ccc(Cl)cc3)=N2)C1	> 7.00
NS(=O)(=O)[C@H]1CC[C@@H](N/C(=N/S(=O)(=O)c2ccc(Cl)cc2)N2C[C@H](c3ccccc3)C(c3ccc(Cl)cc3)=N2)CC1 (single isomer, unassigned)	< 6.30

// for each compound below, give its pIC50
1. NS(=O)(=O)CCNC(=NS(=O)(=O)c1cccc(C(F)(F)F)c1)N1C[C@H](c2ccccc2)C(c2ccc(Cl)cc2)=N1
2. CC(C)(CN/C(=N\S(=O)(=O)c1ccc(Cl)cc1)N1C[C@H](c2ccccc2)C(c2ccc(Cl)cc2)=N1)CS(N)(=O)=O
3. NS(=O)(=O)[C@@H]1CC[C@H](N/C(=N/S(=O)(=O)c2ccc(Cl)cc2)N2C[C@H](c3ccccc3)C(c3ccc(F)cc3)=N2)C1
4. C[C@H](CN/C(=N\S(=O)(=O)c1ccc(F)cc1)N1C[C@H](c2ccccc2)C(c2ccc(Cl)cc2)=N1)S(N)(=O)=O
5. C#Cc1ccc(S(=O)(=O)N=C(NCCS(N)(=O)=O)N2C[C@H](c3ccccc3)C(c3ccc(Cl)cc3)=N2)cc1
6. Cn1cnc(S(=O)(=O)N=C(NCCS(N)(=O)=O)N2C[C@H](c3ccccc3)C(c3ccc(Cl)cc3)=N2)c1
7. CNS(=O)(=O)CCN/C(=N\S(=O)(=O)c1ccc(Cl)cc1)N1C[C@H](c2ccccc2)C(c2ccc(Cl)cc2)=N1

["> 7.00", "6.30 to 7.00", "6.30 to 7.00", "> 7.00", "> 7.00", "< 6.30", "> 7.00"]

Return reported pIC50 for target or system Human CB1 Receptor-1b (hCB1b) (Homo sapiens (Human)), item NS(=O)(=O)[C@H]1C[C@H](N/C(=N/S(=O)(=O)c2ccc(Cl)cc2)N2C[C@H](c3ccccc3)C(c3ccc(F)cc3)=N2)C1 (single isomer, unassigned) .
6.30 to 7.00

---

TESTED_SYSTEM: Human CB1 Receptor-1b (hCB1b) (Homo sapiens (Human))
METHOD: hCB1b Gai cyclic AMP (cAMP) TR-FRET assay, antagonism of EC80 CP55940 with forskolin
CONDITION_SUMMARY: hCB1b cells, 30 min pre-incubation, read-out: CB1b IC50
pIC50: −log10 of the molar value.
READOUT_KIND: pIC50

Record pIC50 per entry; entries follow.
1. NS(=O)(=O)C1CCN(/C(=N/S(=O)(=O)c2ccc(Cl)cc2)N2C[C@H](c3ccccc3)C(c3ccc(F)cc3)=N2)CC1
2. NS(=O)(=O)CCCCN/C(=N\S(=O)(=O)c1ccc(Cl)cc1)N1C[C@H](c2ccccc2)C(c2ccc(Cl)cc2)=N1
3. C[C@@H](CS(N)(=O)=O)NC(=NS(=O)(=O)c1ccc(Cl)cc1)N1C[C@H](c2ccccc2)C(c2ccc(F)cc2)=N1 (single isomer, unassigned)

["< 6.30", "< 6.30", "6.30 to 7.00"]

---

TESTED_SYSTEM: Human CB1 Receptor-1 (hCB1) (Homo sapiens (Human), UniProt P21554)
Sequence (P21554 whole entry): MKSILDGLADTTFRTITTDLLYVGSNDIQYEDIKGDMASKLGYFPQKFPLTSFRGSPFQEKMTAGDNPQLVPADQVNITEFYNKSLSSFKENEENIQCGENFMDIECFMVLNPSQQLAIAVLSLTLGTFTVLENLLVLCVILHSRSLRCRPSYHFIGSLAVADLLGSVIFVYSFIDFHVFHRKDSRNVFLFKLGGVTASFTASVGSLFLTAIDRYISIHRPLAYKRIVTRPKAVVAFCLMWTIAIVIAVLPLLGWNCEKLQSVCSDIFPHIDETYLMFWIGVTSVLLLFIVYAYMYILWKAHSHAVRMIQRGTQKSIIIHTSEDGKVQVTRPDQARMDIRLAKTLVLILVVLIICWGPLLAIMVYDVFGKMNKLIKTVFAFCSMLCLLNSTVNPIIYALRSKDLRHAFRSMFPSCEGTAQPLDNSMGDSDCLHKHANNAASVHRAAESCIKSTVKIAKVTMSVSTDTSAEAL
METHOD: hCB1 Gai cyclic AMP (cAMP) TR-FRET assay, antagonism of EC80 CP55940 with forskolin
CONDITION_SUMMARY: hCB1 cells, 30 min pre-incubation
pIC50: −log10 of the molar value.
Could you please report measured pIC50 for the items listed next?

The cases that follow already have their pIC50 on record.
>>> df
                                   compound                             tested_system  reported
0  NS(=O)(=O)[C@H]1CCN(/C(=N/S(=O)(=O)c2ccc(Cl)cc2)N2C[C@H](c3ccccc3)C(c3ccc(Cl)cc3)=N2)C1 (single isomer, unassigned)  Human CB1 Receptor-1 (hCB1) (Homo sapiens (Human), UniProt P21554)    < 6.30
1  NS(=O)(=O)[C@H]1C[C@H](N/C(=N/S(=O)(=O)c2ccc(Cl)cc2)N2C[C@H](c3ccccc3)C(c3ccc(Cl)cc3)=N2)C1 (single isomer, unassigned)  Human CB1 Receptor-1 (hCB1) (Homo sapiens (Human), UniProt P21554)    > 7.00
2  NS(=O)(=O)C1CCN(/C(=N/S(=O)(=O)c2ccc(Cl)cc2)N2C[C@H](c3ccccc3)C(c3ccc(Cl)cc3)=N2)CC1  Human CB1 Receptor-1 (hCB1) (Homo sapiens (Human), UniProt P21554)    < 6.30

# per-item lookup of pIC50; items listed below
1. NS(=O)(=O)[C@H]1CC[C@H](N/C(=N/S(=O)(=O)c2ccc(Cl)cc2)N2C[C@H](c3ccccc3)C(c3ccc(F)cc3)=N2)C1
2. NS(=O)(=O)NCCN/C(=N\S(=O)(=O)c1ccc(Cl)cc1)N1C[C@H](c2ccccc2)C(c2ccc(Cl)cc2)=N1
3. CN(C)S(=O)(=O)CCNC(=NS(=O)(=O)c1ccc(Cl)cc1)N1C[C@H](c2ccccc2)C(c2ccc(F)cc2)=N1
4. NS(=O)(=O)CCN/C(=N\S(=O)(=O)c1ccc(Cl)cc1)N1C[C@H](c2ccccc2)C(c2ccc(F)cc2)=N1
5. Cn1cnc(S(=O)(=O)N=C(NCCS(N)(=O)=O)N2C[C@H](c3ccccc3)C(c3ccc(Cl)cc3)=N2)c1

1. 6.30 to 7.00
2. > 7.00
3. 6.30 to 7.00
4. > 7.00
5. < 6.30

---

TESTED_SYSTEM: Human CB1 Receptor-1b (hCB1b) (Homo sapiens (Human), UniProt P21554)
Sequence (P21554 other isoform, or with tags, fused parts or gaps): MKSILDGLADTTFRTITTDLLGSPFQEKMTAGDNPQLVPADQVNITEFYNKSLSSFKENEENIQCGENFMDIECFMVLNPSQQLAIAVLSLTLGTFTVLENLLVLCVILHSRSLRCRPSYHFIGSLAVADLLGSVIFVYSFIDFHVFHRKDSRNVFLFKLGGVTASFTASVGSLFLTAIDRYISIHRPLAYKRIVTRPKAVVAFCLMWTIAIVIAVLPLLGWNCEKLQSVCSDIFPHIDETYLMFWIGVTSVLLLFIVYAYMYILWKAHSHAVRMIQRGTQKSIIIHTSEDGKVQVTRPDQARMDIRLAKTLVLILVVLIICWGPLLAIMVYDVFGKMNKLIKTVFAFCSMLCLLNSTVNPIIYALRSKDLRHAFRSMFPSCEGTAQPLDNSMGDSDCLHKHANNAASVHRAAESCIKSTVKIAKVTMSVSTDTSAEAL
METHOD: hCB1b Gai cyclic AMP (cAMP) TR-FRET assay, antagonism of EC80 CP55940 with forskolin
CONDITION_SUMMARY: hCB1b cells, 30 min pre-incubation, read-out: CB1b IC50
pIC50: −log10 of the molar value.
READOUT_KIND: pIC50

Recorded results for 2 compounds are shown here.
COMPOUND	REPORTED
NS(=O)(=O)CCNC(=NS(=O)(=O)c1cccc(Cl)c1)N1C[C@H](c2ccccc2)C(c2ccc(Cl)cc2)=N1 [Compound 31]	> 7.00
NS(=O)(=O)[C@H]1C[C@H](N/C(=N/S(=O)(=O)c2ccc(Cl)cc2)N2C[C@H](c3ccccc3)C(c3ccc(Cl)cc3)=N2)C1 (single isomer, unassigned) [Compound 115]	> 7.00

Please turn your attention to the following entry.
Supply reported pIC50 belonging to this compound: NS(=O)(=O)CCN/C(=N\S(=O)(=O)c1ccc(Cl)cc1)N1C[C@H](c2ccccc2)C(c2ccc(F)cc2)=N1 [Compound 45]
> 7.00

---

Give measured IC50 for each item. Keep answers brief.
TESTED_SYSTEM: Human CB1 Receptor-1b (hCB1b) (Homo sapiens (Human))
METHOD: hCB1b Gai cyclic AMP (cAMP) TR-FRET assay, antagonism of EC80 CP55940 with forskolin
Assay type: cell-based
CONDITION_SUMMARY: hCB1b cells, 30 min pre-incubation, read-out: CB1b IC50

Worked examples, 2 compounds total:
In [3]: df
Out[3]:
                              line_notation  readout_kind       reported
0  C[C@H](CS(N)(=O)=O)N/C(=N\S(=O)(=O)c1ccc(C(F)(F)F)cc1)N1C[C@H](c2ccccc2)C(c2ccc(Cl)cc2)=N1          IC50  100 to 500 nM
1  O=S(=O)(/N=C(\NCCS(=O)(=O)N1CCNCC1)N1C[C@H](c2ccccc2)C(c2ccc(Cl)cc2)=N1)c1ccc(Cl)cc1          IC50       < 100 nM

Next compound, IC50 to be filled in.
Quickly give me recorded IC50 for `CN(CCS(N)(=O)=O)/C(=N/S(=O)(=O)c1ccc(Cl)cc1)N1C[C@H](c2ccccc2)C(c2ccc(Cl)cc2)=N1`
> 500 nM
